# Tested on: A431 (epidermoid carcinoma)
# Test description: Antiproliferative activity (CCK-8 cell viability), A431
# Format: cell-based
# Test parameters: Homo sapiens, A-431, Compound concentration: 10 μM, 72 h, read-out: Antiproliferative activity in cancerous cells, A431 (inhibition of cell growth)
Endpoint label: inhibition at 10 µM

Known results for molecules:
Molecule | Study system | inhibition at 10 µM
CC1=C(CC(=O)O)c2cc(F)ccc2/C1=C\c1ccccc1OCc1ccccc1 [B28] | A431 (epidermoid carcinoma) | ≥ 50%
CC1=C(CC(=O)O)c2ccc(F)cc2/C1=C\c1ccc(COc2ccccc2)cc1 [B1] | A431 (epidermoid carcinoma) | 30 to 50%
CC1=C(Cc2noc(=O)[nH]2)c2cc(F)ccc2/C1=C\c1ccc(Oc2ccc(F)cc2)cc1 [C26] | A431 (epidermoid carcinoma) | ≥ 50%

Per the reported A431 (epidermoid carcinoma) data, CCc1ccc2c(c1)C(CC(=O)O)=C(C)/C2=C/c1ccc(COc2ccc(F)c(F)c2)cc1 [B55] has inhibition at 10 µM of ≥ 50%

Per the reported A431 (epidermoid carcinoma) data, CC1=C(CC(=O)O)c2cc(F)ccc2/C1=C\c1cccc(Oc2ccc3ccccc3c2)c1 [C99] has inhibition at 10 µM of < 30%

Per the reported A431 (epidermoid carcinoma) data, CC(C)c1ccc(/C=C2/C(Cc3ccc(F)cc3)=C(CC(=O)O)c3cc(F)ccc32)cc1 [D2] has inhibition at 10 µM of ≥ 50%

Per the reported A431 (epidermoid carcinoma) data, CC1=C(CC(=O)O)c2cc(F)ccc2/C1=C\c1cccc(Sc2ccc(F)cc2)c1 [C42] has inhibition at 10 µM of ≥ 50%

Per the reported A431 (epidermoid carcinoma) data, CC1=C(CC(=O)O)c2cc(F)ccc2/C1=C\c1ccc(Oc2ccc(Cl)cc2)cc1Oc1ccc(Cl)cc1 [C79] has inhibition at 10 µM of ≥ 50%

###

Examples of compounds with documented inhibition at 10 µM follow.
# System: MDA-MB-231 (breast cancer)
# Test description: Antiproliferative activity (CCK-8 cell viability), MDA-MB-231
# Type: cell-based
# Test parameters: Homo sapiens, Compound concentration: 10 μM, 72 h, read-out: Antiproliferative activity in cancerous cells, MDA-MB-231 (inhibition of cell growth)

Known results for compounds:
Entry smiles | inhibition at 10 µM
CC1=C(CC(=O)O)c2cc(F)ccc2/C1=C\c1cccc(Oc2ccc(C)cc2)c1 | < 30%
CC1=C(CC(=O)O)c2cc(C)ccc2/C1=C\c1ccc(COc2ccccc2)cc1 | 30 to 50%
CC1=C(CC(=O)O)c2cc(F)ccc2/C1=C\c1ccc(CCCc2ccc(Cl)cc2)cc1 | < 30%
CC1=C(CC(=O)O)c2cc(Br)ccc2/C1=C\c1cccc(Oc2ccccc2)c1 | ≥ 50%

Kindly consider the entry below.
Documented inhibition at 10 µM of `CC1=C(CC(=O)O)c2ccc(F)cc2/C1=C\c1cccc(Oc2ccccc2)c1` : 30 to 50%

###

# Tested on: HepG2 (liver cancer)
# Test description: Antiproliferative activity (CCK-8 cell viability), HepG2
# Format: cell-based
# Test parameters: Homo sapiens, Compound concentration: 30 μM, 72 h, read-out: Antiproliferative activity in cancerous cells, HepG2
Examples of molecules with documented inhibition at 30 µM follow.

Entry smiles | Reported
COc1ccc(Oc2ccc(/C=C3/C(C)=C(CC(=O)O)c4cc(F)ccc43)cn2)cc1 | < 30%

Documented inhibition at 30 µM of `O=C(O)CC1=C/C(=C/c2ccc(COc3ccccc3)cc2)c2ccc(F)cc21` : < 30%
